- STUDY TARGET: caspase-like (PGPH) activity of rabbit muscle 20S proteasome (Oryctolagus cuniculus)
- Sequence (A0A5F9DQW2 1-212): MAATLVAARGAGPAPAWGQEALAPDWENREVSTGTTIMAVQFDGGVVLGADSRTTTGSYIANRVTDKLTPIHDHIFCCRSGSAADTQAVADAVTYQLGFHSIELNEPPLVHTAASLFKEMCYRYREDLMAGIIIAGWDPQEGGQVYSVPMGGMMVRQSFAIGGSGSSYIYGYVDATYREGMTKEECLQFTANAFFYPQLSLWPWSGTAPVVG
- METHOD NOTES: In vitro inhibition of 20S proteasome, Z-LLE-AMC
- DETAILS: read-out: EC50 Caspase-like; purified rabbit 20S proteasome, Z-LLE-AMC
Assignment: determine reported EC50 for the given compounds.
Give bare numbers, in µM.

CCC(=O)OCC[C@H]1C(=O)N[C@@]2([C@@H](O)[C@@H]3C=CCCC3)C(=O)O[C@@]12C [Formula II-22] = 1.4

Next compound, please.
Kindly note the recorded EC50 for CCC[C@H]1C(=O)N[C@@]2([C@@H](O)[C@@H]3C=CCCC3)C(=O)O[C@@]12C [Formula II-30] , which is 1.3
